Values were extracted from ChEMBL document CHEMBL1127746.

I'd be grateful if you could share measured Bmax (pM (mg of protein)-1) for these entries.
Molecular target: GABA-A receptor; anion channel (Rattus norvegicus) (UniProt O09028+P15431+P18506+P18508+P19969+P20236+P23574+P23576+P28471+P28473+P30191+P62813+P63079+P63138+Q91ZM7+Q9ES14)
Test: Maximum Binding affinity for picrotoxinin (GABA-A) receptor of rat cerebral cortex
Format: tissue-based
Give bare numbers.

Recorded Bmax (pM (mg of protein)-1), per entry:
compound	measured_value
CCC1(C(C)C)CCOC1=O (centres undefined)	1.5
C[C@H]1CC12CCOC2=O (some centres undefined)	1.27
CC1(C)CCCC12CCOC2=O (centres undefined)	1

State recorded Bmax (pM (mg of protein)-1) for all listed compounds.
1. C[C@@H]1CC12CCOC2=O (some centres undefined)
2. CC(C)C1(C)CCOC1=O (centres undefined)
3. C[C@H]1CC[C@H](C)C12CCOC2=O

1.14
0.99
1.04

State recorded Bmax (pM (mg of protein)-1) for all listed compounds.
1. CCC1(C)CCOC1=O (centres undefined)
2. CCC1(CC)CCOC1=O
3. CC1(C)CC12CCOC2=O (centres undefined)
4. O=C1OCCC12CCCC2
5. CCC1(C(C)(C)C)CCOC1=O (centres undefined)
6. CC(C)C1(C(C)C)CCOC1=O
7. C[C@@H]1CC[C@H](C)C12CCOC2=O (some centres undefined)
8. CC1CCCC12CCOC2=O (centres undefined)

[1.27, 1.51, 0.86, 1.04, 1.54, 1.49, 0.54, 0.93]

----------
Target: GABA-A receptor; anion channel (Rattus norvegicus) (UniProt O09028+P15431+P18506+P18508+P19969+P20236+P23574+P23576+P28471+P28473+P30191+P62813+P63079+P63138+Q91ZM7+Q9ES14)
Assay: Percent response relative to current produced by 1 uM GABA in rat hippocampal cells
Type: functional, cell-based
Settings: Hippocampus
quantity_name: Response

Recorded Response, per entry:
molecule	Response
CC1(C)CC12CCOC2=O (centres undefined)	247%
CCC1(C(C)(C)C)CCOC1=O (centres undefined)	47%
CC(C)C1(C)CCOC1=O (centres undefined)	116%

Now for the molecule whose Response we want.
Quick one: Response of C[C@H]1CC[C@H](C)C12CCOC2=O ?
80%

----------
Target: GABA-A receptor; anion channel
Experiment: Dissociation constant from displacement of 35[S]-TBPS binding from picrotoxinin (GABA-A) receptor of rat cerebral cortex
quantity_name: pKd
Numbers only, as −log10 of the molar value.

Recorded pKd, per entry:
compound	pKd
CCC1(CC)CCOC1=O	7.43
C[C@@H]1CC12CCOC2=O (stereo partly drawn)	7.39
CC1(C)CCCC12CCOC2=O (stereo not drawn)	7.38

State recorded pKd for all listed compounds.
1. CCC1(C(C)(C)C)CCOC1=O (stereo not drawn)
2. C[C@H]1CC12CCOC2=O (stereo partly drawn)
3. C[C@H]1CC[C@H](C)C12CCOC2=O
4. CCC1(C)CCOC1=O (stereo not drawn)

7.33
7.36
7.45
7.09

Quick one: pKd of CCC1(C(C)C)CCOC1=O (stereo not drawn) ?
7.45
